measured property: melting point

Fill in reported melting point for this entry: `C[C@@](Cc1c[nH]c2ccccc12)(Nc1nc(-c2ccc([N+](=O)[O-])cc2)co1)C(=O)NCC(=O)c1ccccc1`
80 to 90 °C

Read the entry `Cc1cccc(N[C@@](C)(Cc2c[nH]c3ccccc23)C(=O)NCC2(c3ccccn3)CCCCC2)c1` and write its reported melting point.
70 to 75 °C

Give the reported value of melting point for this record: `COCC1(CNC(=O)[C@](C)(Cc2c[nH]c3ccccc23)Nc2nc(-c3ccc([N+](=O)[O-])cc3)co2)CCCCC1`
189 to 192 °C

Return melting point for the following compound: `COc1ccc(C2(CNC(=O)[C@](C)(Cc3c[nH]c4ccccc34)Nc3nc(-c4ccc([N+](=O)[O-])cc4)co3)CCCCC2)nc1`
100 to 105 °C

Supply recorded melting point for `C[C@@](Cc1c[nH]c2ccccc12)(Nc1nc2ccccc2o1)C(=O)NCC1(c2ccccn2)CCCCC1` here.
198 to 200 °C

For the compound `C[C@@](Cc1c[nH]c2ccccc12)(NCc1ccc([N+](=O)[O-])cc1)C(=O)NCC1(c2ccccn2)CCCCC1` , report melting point.
58 to 60 °C

Fill in melting point for record `COc1ccc(C2(CNC(=O)[C@](C)(Cc3c[nH]c4ccccc34)Nc3nc(-c4ccc(C#N)cc4)co3)CCCCC2)nc1`
105 to 108 °C

Supply reported melting point belonging to this compound: `CCc1coc(N[C@@](C)(Cc2c[nH]c3ccccc23)C(=O)NCC2(c3ccc(OC)cn3)CCCCC2)n1`
60 to 65 °C

Entry `C[C@@](Cc1c[nH]c2ccccc12)(Nc1ccncc1)C(=O)NCC1(c2ccccn2)CCCCC1` needs its melting point filled in; supply it.
180 to 195 °C

Write down melting point measured for item `COc1ccc(C2(CNC(=O)[C@](C)(Cc3c[nH]c4ccccc34)Nc3nc(-c4ccccc4)co3)CCCCC2)nc1`
85 to 90 °C

Return value of melting point for input `COc1ccc(C2(CNC(=O)[C@](C)(Cc3c[nH]c4ccccc34)Nc3nc(-c4ccc([N+](=O)[O-])cc4)cs3)CCCCC2)nc1` , no commentary.
110 to 114 °C

Return melting point for the following compound: `C[C@@](Cc1c[nH]c2ccccc12)(Nc1cncc2ccccc12)C(=O)NCC1(c2ccccn2)CCCCC1`
98 to 101 °C

Let me know recorded melting point for `C[C@@](Cc1c[nH]c2ccccc12)(Nc1cncnc1)C(=O)NCC1(c2ccccn2)CCCCC1` , thanks.
95 to 98 °C

Where these numbers come from: patent US20040110768A1
